Molecular target: IL-1R/IL-1RacP receptor (Homo sapiens, UniProt P14778)
Sequence (P14778 18-569): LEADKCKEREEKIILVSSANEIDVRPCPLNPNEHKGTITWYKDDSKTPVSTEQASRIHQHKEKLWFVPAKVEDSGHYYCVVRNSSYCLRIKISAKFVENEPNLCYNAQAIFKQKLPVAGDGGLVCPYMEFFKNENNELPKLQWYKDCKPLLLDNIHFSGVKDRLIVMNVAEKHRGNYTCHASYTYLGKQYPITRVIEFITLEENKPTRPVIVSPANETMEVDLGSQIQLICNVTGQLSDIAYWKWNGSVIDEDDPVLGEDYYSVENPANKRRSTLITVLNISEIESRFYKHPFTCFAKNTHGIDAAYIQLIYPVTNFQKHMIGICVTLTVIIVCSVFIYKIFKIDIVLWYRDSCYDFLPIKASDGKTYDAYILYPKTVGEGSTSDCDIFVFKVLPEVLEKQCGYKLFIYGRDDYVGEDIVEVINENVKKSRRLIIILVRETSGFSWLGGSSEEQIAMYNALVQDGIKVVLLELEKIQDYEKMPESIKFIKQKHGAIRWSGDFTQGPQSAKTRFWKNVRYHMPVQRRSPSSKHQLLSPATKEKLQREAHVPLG
Assay: IL-1-induced PGE2 synthesis in human chondrocytes
Assay type: cell-based
Design: endogenous in cells
Details: alanine scan peptides 10^−6M
Reported property: inhibition of IL-1-induced PGE2 synthesis, compared with parent API-101

{"Sequence content": "APRYTVEAA [API-101.7]", "Obs value": "lost almost all activity"}
{"Sequence content": "APRYTVALA [API-101.6]", "Obs value": "lost almost all activity"}
{"Sequence content": "APRYTAELA [API-101.5]", "Obs value": "lost almost all activity"}

----------
Biological target: IL-1R/IL-1RacP receptor (Homo sapiens, UniProt P14778)
Experiment: IL-1β-induced proliferation in TF-1 cells
Type: cell-based
Design: endogenous in cells; host or cells: TF-1 cells
Conditions: Table 5; derivatives of 101.113
Where a SMILES comes first, the peptide text is derived from it.

{"Compound": "CC(C)C[C@@H](NC(=O)[C@@H](CCC(=O)O)NC(=O)[C@H]1CCCN1C(=O)[C@H](NC(=O)[C@@H](Cc1c[nH]c2ccccc12)NC(=O)[C@H](N)CCCNC(=N)N)[C@H](C)O)C(N)=O [API-101.128, RWTPEL]", "activity of the peptide, in words": "relatively decreased"}
{"Compound": "CC(C)C[C@@H](NC(=O)[C@@H](CCC(=O)O)NC(=O)[C@H]1CCCN1C(=O)[C@H](NC(=O)[C@@H](Cc1ccccc1)NC(=O)[C@H](N)CCCNC(=N)N)[C@H](C)O)C(N)=O [API-101.132, RFTPEL] (HELM PEPTIDE1{[dR].[dF].[dT].[dP].[dE].[dL].[am]}$$$$V2.0; N-terminus and C-terminus assumed)", "activity of the peptide, in words": "relatively decreased"}

----------
Target: IL-1R/IL-1RacP receptor (Sus scrofa, UniProt A0A5G2QSI4)
Construct: endogenous in cells; host or cells: piglet brain microvascular endothelial cells
Sequence (A0A5G2QSI4 21-572): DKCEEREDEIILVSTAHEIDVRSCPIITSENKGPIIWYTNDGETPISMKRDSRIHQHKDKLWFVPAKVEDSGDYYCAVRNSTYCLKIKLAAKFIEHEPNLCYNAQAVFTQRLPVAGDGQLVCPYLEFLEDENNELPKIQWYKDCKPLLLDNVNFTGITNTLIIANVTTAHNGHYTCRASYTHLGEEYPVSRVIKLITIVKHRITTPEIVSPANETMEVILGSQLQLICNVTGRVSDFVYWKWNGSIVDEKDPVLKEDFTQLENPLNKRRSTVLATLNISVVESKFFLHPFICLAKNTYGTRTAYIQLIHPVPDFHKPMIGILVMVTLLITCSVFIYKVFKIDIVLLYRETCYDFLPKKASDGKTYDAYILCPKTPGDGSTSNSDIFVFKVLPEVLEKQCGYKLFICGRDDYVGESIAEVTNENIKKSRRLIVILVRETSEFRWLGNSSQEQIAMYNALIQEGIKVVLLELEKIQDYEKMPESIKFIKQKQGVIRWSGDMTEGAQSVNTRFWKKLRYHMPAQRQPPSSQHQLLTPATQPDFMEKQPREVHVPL
Test: IL-1-induced PGE2 synthesis in piglet brain microvascular endothelial cells
Format: cell-based, porcine
Settings: alanine scan peptides 10^−6M, endothelial cells
Reported property: inhibition of IL-1-induced PGE2 synthesis, compared with parent API-101

{"Sequence content": "APRYTAELA [API-101.5]", "Obs value": "lost almost all activity"}
{"Sequence content": "APRYTVALA [API-101.6]", "Obs value": "lost almost all activity"}
{"Sequence content": "APRYTVEAA [API-101.7]", "Obs value": "lost almost all activity"}
